- assay_method_text: Permeability by PAMPA
- Type: in vitro ADME

- compound: "C[C@]12CC[C@H]3[C@@H](CCC4=CC(=O)CC[C@@]43C)[C@@H]1CC[C@@H]2O [testosterone]"
  Papp at 5 h, 25 μM: "102 ×10⁻⁶ cm/s"
